Values compiled from patent US5232633A.

Experiment: Hydrolytic stability at pH 9, 40° C. by reverse phase HPLC
Assay type: physicochemical
Details: 5×10^-4 M in NaHCO3 buffer with 5% CH3CN, 500 µM
Provide the recorded Hydrolytic Stability, t 1/2 for the entries that follow.
Numbers only, in h.

Here's what some known entries look like.
>>> value("CCCCCCCCCCCCOC(=O)OCCS(=O)(=O)O.[Na]")
55.2
>>> value("CCCCCCCCCCCC(=O)OCCS(=O)(=O)O [SLI, sodium lauroyl isethionate, reference compound]")
24
>>> value("CCCCCCCCCCC(C)OC(=O)OCCS(=O)(=O)O (stereo not drawn) [SE2DC, Sodium 2-sulfoethyl 2-dodecylcarbonate]")
223
>>> value("CCCCCCCCCCCCOC(=O)OC(CC)CS(=O)(=O)O (stereo not drawn)")
1030

# next compound below
Exam item: Can you share its Hydrolytic Stability, t 1/2? I mean this compound: CCCCCCCCCCCCOC(=O)OC(C)CS(=O)(=O)O (stereo not drawn)
Marked response: 286
